Kindly state MIC KP for each of the entries shown.
Tested on: Klebsiella pneumoniae ATCC 10031, CCM 4415
assayRemarks: Antibacterial microdilution broth method (EUCAST)
measurementSetup: 48h

>>> df
                        smilesrecord                                testsystem  experimentalvalue
0  CCCCCNc1cnc(C(=O)Nc2ccc(C)cc2)cn1  Klebsiella pneumoniae ATCC 10031, CCM 4415           > 500 µM

Kindly give each listed record's MIC KP.
1. CCCCCCNc1cnc(C(=O)Nc2ccc(C)cc2)cn1
2. CCCCCCNc1cnc(C(=O)Nc2ccc(O)cc2)cn1

["> 500 µM", "> 500 µM"]

Kindly give each listed record's MIC KP.
1. CCCCCCCNc1cnc(C(=O)Nc2cccc(C(F)(F)F)c2)cn1
2. CCCCNc1cnc(C(=O)Nc2cccc(C(F)(F)F)c2)cn1
3. CCCCNc1cnc(C(=O)Nc2cccc(O)c2)cn1
4. CCCCCCCNc1cnc(C(=O)Nc2ccc(C)cc2)cn1
5. CCCNc1cnc(C(=O)Nc2cccc(C(F)(F)F)c2)cn1
6. CCCNc1cnc(C(=O)Nc2cccc(O)c2)cn1
7. CCCCCNc1cnc(C(=O)Nc2ccc(O)cc2)cn1

["> 500 µM", "> 500 µM", "> 500 µM", "> 500 µM", "> 500 µM", "> 125 µM", "> 125 µM"]

----------
Kindly state MIC for each of the entries shown.
Tested on: Aspergillus flavus CCM 8363
assayRemarks: Antifungal microdilution broth method (EUCAST)
Assay type: cell-based
measurementSetup: CCM8363, 24 h, read-out: MIC AFla

In [3]: df
Out[3]:
                                   molecule                   testsystem  observedproperty  experimentalvalue
0  CCCCCCNc1cnc(C(=O)Nc2ccc(O)cc2)cn1 [Compound 3d]  Aspergillus flavus CCM 8363               MIC           > 500 µM
1  CCCCCCCCNc1cnc(C(=O)Nc2ccc(C)cc2)cn1 [Compound 4f]  Aspergillus flavus CCM 8363               MIC           > 125 µM
2  CCCCCNc1cnc(C(=O)Nc2ccc(O)cc2)cn1 [Compound 3c]  Aspergillus flavus CCM 8363               MIC           > 125 µM
3  CCCCNc1cnc(C(=O)Nc2cccc(O)c2)cn1 [Compound 2b]  Aspergillus flavus CCM 8363               MIC           > 125 µM

Kindly give each listed record's MIC.
1. CCCCNc1cnc(C(=O)Nc2ccc(O)cc2)cn1 [Compound 3b]
2. CCCCCCCCNc1cnc(C(=O)Nc2cccc(O)c2)cn1 [Compound 2f]
3. CCCNc1cnc(C(=O)Nc2ccc(CC)cc2)cn1 [Compound 5a]
4. CCCCNc1cnc(C(=O)Nc2ccc(C)cc2)cn1 [Compound 4b]
5. CCCCCCNc1cnc(C(=O)Nc2ccc(C)cc2)cn1 [Compound 4d]
6. CCCCCCCNc1cnc(C(=O)Nc2ccc(O)cc2)cn1 [Compound 3e]
7. CCCCCCCNc1cnc(C(=O)Nc2cccc(C(F)(F)F)c2)cn1 [Compound 1e]
8. CCCCCNc1cnc(C(=O)Nc2cccc(C(F)(F)F)c2)cn1 [Compound 1c]

> 250 µM
> 125 µM
> 125 µM
> 125 µM
> 125 µM
> 250 µM
> 500 µM
> 125 µM
